Listing of entries alongside the reported microsomal CLint at 1 μM.
# ASSAY_PROCEDURE: In vitro metabolic stability in human liver microsomes
# Format: in vitro ADME
Give the value in µL/min/mg but do not write µL/min/mg after it.

[
  {
    "LINE_NOTATION": "CCN1CCN(c2ccc(Nc3cc(N(C)C(=O)Nc4c(Cl)c(OC)cc(OC)c4Cl)ncn3)cc2)CC1",
    "microsomal CLint at 1 μM, µL/min/mg": 39.4
  }
]

Then this molecule:
Fill in microsomal CLint at 1 μM for record CC[N+]1([O-])CCN(c2ccc(Nc3cc(N(C)C(=O)Nc4c(Cl)c(OC)cc(OC)c4Cl)ncn3)cc2)CC1
37.1
